Each item that follows carries a reported TGI.
Tested on: BT-549 breast
Experiment: NCI tumour cell line growth inhibition, 48 h

| smiles_input | value_observed |
| --- | --- |
| C/C(=N\NS(=O)(=O)c1ccc(C)cc1)P(=O)(O)O | > 100 µM |

What does the data say about its TGI? Entry: S=C(Nc1ccc(-c2nc3ccccc3[nH]2)cc1)Nc1ccc(-c2nc3ccccc3[nH]2)cc1
> 100 µM

What does the data say about its TGI? Entry: Cc1csc(/C=C/C(=O)c2nnn(-c3ccnc4c(C(F)(F)F)cccc34)c2C)c1
> 100 µM

What does the data say about its TGI? Entry: CC(C)=CCC[C@](C)(O)[C@H]1CC[C@]2(C)[C@@H]1CC[C@@H]1[C@@]3(C)CC/C(=N/O)C(C)(C)[C@@H]3CC[C@]12C
> 100 µM

What does the data say about its TGI? Entry: COc1ccc2c(=O)cc(C(Cl)(Cl)Cl)oc2c1
10.6 µM
